Tested on: RPMI-8226
Test details: NCI tumour cell line growth inhibition, 48 h
Activity calls are given as the source filed them. Rule as the data show it: active = GI50 up to about 1.1 µM and inactive = higher.
// one of true for active, false for inactive, no free text

Incoming: Dear all, I need the recorded test outcome for C=C1N(S(=O)(=O)c2ccc(C)cc2)C(=O)OCC12CCCC2 , thank you.
Outgoing: false

Incoming: Item: COC(=O)c1ccc(C(=O)NC(Cc2ccc(Oc3cc(CC(NC(=O)c4ccccc4C(=O)OC)C(=O)OC)ccc3OC)cc2)C(=O)OC)cc1 (stereo not drawn)
Outgoing: false

Incoming: Item: Cc1cccc(C)c1NC(=O)C(=O)C(c1ccccc1Cl)S(=O)(=O)Cc1ccccc1Cl (stereo not drawn)
Outgoing: false

Incoming: Item: CCOc1ccc(NC(=O)CC2Sc3ccccc3NC2=O)cc1 (stereo not drawn)
Outgoing: false

Incoming: Item: CCOC(=O)c1ccc(NC(=O)O/N=C(/Cl)CC)cc1
Outgoing: false

Incoming: Item: CN(CCCNC(=O)c1c2ccc3ccccc3c2nn1C)CCCNC(=O)c1c2ccc3ccccc3c2nn1C
Outgoing: false

Incoming: Item: O=c1[nH]ccc2c1ccn2C1CC(O)C(CO)O1 (stereo not drawn)
Outgoing: false

Incoming: Item: CCOC(=O)c1sc2nc(SC)nc3c2c1NCN3c1ccc2c(c1)OCO2
Outgoing: false

Incoming: Item: CC(=O)O[C@H]1CC[C@H]2[C@@H]3CCC4=C(C(=O)C=CC4(C)OC(C)=O)[C@H]3CC[C@]12C (stereo partly drawn)
Outgoing: false

Incoming: Item: COc1ccc(-n2c(C)nc3ccc(/N=C/c4ccccc4)cc3c2=O)cc1
Outgoing: false

Incoming: Item: COc1cc(/C=C/c2ccc(OC(C)=O)cc2)cc(OC)c1OC
Outgoing: false

Incoming: Item: O=c1[nH]nc(Cc2ccccc2)n1CCO
Outgoing: false

Incoming: Item: COc1ccc2oc(=O)c(-c3csc(-c4ccccc4)n3)cc2c1
Outgoing: false

Incoming: Item: COc1cc(/C=C2\N=C(c3ccccc3)N(c3nc4c(Cl)cc(Cl)cc4s3)C2=O)ccc1O
Outgoing: false

Incoming: Item: O=c1[nH]nc2c3n[nH]c(=O)n3c3ccccc3n12
Outgoing: false

Incoming: Item: Cc1nn(-c2ccccc2)c2c1C(c1cc3ccccc3nc1Cl)NC(=O)N2 (stereo not drawn)
Outgoing: false

Incoming: Item: CCOC(=O)c1nc2ccccc2nc1Oc1ccc(F)cc1
Outgoing: false

Incoming: Item: C=CC[P@@]1(=O)O[C@H](c2ccccc2)C(C)N1C(C)C (stereo partly drawn)
Outgoing: false

Incoming: Item: O=[N+]([O-])c1cccc2nc3ccccc3c(NCCN(CCO)CCO)c12
Outgoing: true

Incoming: Item: Cc1cc2c(=O)c3ccccc3[nH]c2c(C(N)=O)c1C
Outgoing: false

Incoming: Item: N#CC1=C(c2ccccc2)NN(Cc2ccccc2)C(c2ccc(Cl)cc2)CC1=O (stereo not drawn)
Outgoing: false

Incoming: Item: O=C(O)CC[C@H](NC(=O)c1ccc(-n2nc3ccc(=O)cc-3[nH]c2=O)cc1)C(=O)O
Outgoing: false

Incoming: Item: CSc1c(C#N)c(S)n(-c2ccc(Cl)cc2)c(=O)c1C#N
Outgoing: false

Incoming: Item: CC(=O)OCC(=O)OC[C@H](OCc1ccccc1)[C@@H]1[C@H](OC(C)=O)C(=O)N1Cc1ccccc1
Outgoing: false

Incoming: Item: C[C@]12CC(c3ccccc3O1)C(C(=O)Nc1nc(C34CC5CC(CC(C5)C3)C4)cs1)C(=O)N2 (stereo partly drawn)
Outgoing: false

Incoming: Item: C#CCn1ncc2c(SC)ncnc21
Outgoing: false

Incoming: Item: COc1cccc(OC)c1/C=N\N1C(=O)c2ccccc2C1=O
Outgoing: false

Incoming: Item: CC1OC(n2cc(F)c(=O)[nH]c2=O)CCC1=O (stereo not drawn)
Outgoing: false

Incoming: Item: CC1(C2CCC3(C)C(C2)C3Sc2ccccc2)OCCO1 (stereo not drawn)
Outgoing: false

Incoming: Item: CCOC(=O)c1c(OCC)[nH]c(=O)c(C(c2cccs2)c2c(O)c(C(=O)OCC)c(OCC)[nH]c2=O)c1O
Outgoing: false

Incoming: Item: Cc1nn(-c2cc(Cl)ccc2[N+](=O)[O-])c(C)c1Cl
Outgoing: false

Incoming: Item: COc1ccc(C(=O)c2nc3ccccc3nc2N2CCN(c3ccccc3)CC2)cc1OC
Outgoing: false

Incoming: Item: CCn1ncc(N=O)c1N
Outgoing: false

Incoming: Item: Cc1c(C(C)C)cc(OCCO)cc1C(C)C
Outgoing: false

Incoming: Item: Cc1cn(C2CC(n3cc(Cn4ccc(=O)[nH]c4=O)nn3)C(CO)O2)c(=O)[nH]c1=O (stereo not drawn)
Outgoing: false

Incoming: Item: CC(C)=CC(=O)c1c(C(=O)O)nc2ccccc2[n+]1[O-]
Outgoing: false

Incoming: Item: CC1=CN(c2ccccc2)S2=C1c1sc3c(c1N2c1ccc(Br)cc1)CCCC3 (stereo not drawn)
Outgoing: false

Incoming: Item: COc1cc2c(cc1OC)C1c3ccccc3CCCN1CC2 (stereo not drawn)
Outgoing: false

Incoming: Item: CC(NC1=CC(=O)c2ncccc2C1=O)C(O)c1ccccc1 (stereo not drawn)
Outgoing: false

Incoming: Item: COc1ccc(C2=C(N)c3cc(OC)ccc3C2=O)cc1
Outgoing: false

Incoming: Item: CC(=O)SC(C[N+](=O)[O-])c1ccc2c(c1)OCO2 (stereo not drawn)
Outgoing: false

Incoming: Item: O=C(Cn1cc(-c2ccccc2)nn1)NC1CCCCC1
Outgoing: false

Incoming: Item: CCOC(=O)NC(C(C(=O)OCC)C(=O)OCC)(C(F)(F)F)C(F)(F)F
Outgoing: false
